Values compiled from ChEMBL document CHEMBL4513216.

- METHOD DESCRIPTION: Toxicity liver stage against HepG2, at 10uM
- Type: cell-based
- Design: test concentration 10 uM, cell line HepG2-A16-CD81EGFP
- RECORDED CONDITIONS: human, HepG2-A16-CD81EGFP cells; read-out: INHIBITION
QUANTITY: cytotoxicity at 10 µM (%)
One number for each entry, in %.

Below, each entry is followed by its recorded cytotoxicity at 10 µM result.
| MOLECULE | RESULT UNIT | TEST VALUE |
| --- | --- | --- |
| c1coc(CN2CCn3c(COCC4CC4)nnc3C2)c1 | % | 6.28 |
| O=C1COC2(CCN(CC3CCC3)CC2)CN1c1cncnc1 | % | -1.11 |
| CN(CCc1cnn(C)c1)C(=O)C(c1ccccc1F)N(C)C (centres undefined) | % | 3.11 |
| Cc1ccsc1CN(CCN(C)C)C(=O)c1cc2ccccc2[nH]1 | % | -139 |
| Cc1nc(CN2CCCC(c3cc(C(F)(F)F)[nH]n3)C2)cs1 (centres undefined) | % | -4.95 |
| CCOCC(=O)N1CCC(c2cc3ncccc3c(O)n2)CC1 | % | -30.1 |
| Cc1csc(CNC(=O)NC(C)c2ccc3c(c2)OCCO3)n1 (centres undefined) | % | -5.72 |
| CCOc1ccc(C(=O)N(Cc2cnn(C)c2)C(C)C)cc1OCC | % | -8.4 |
| CN(C)C(=O)CNC(=O)CCn1ncc2c(Cl)cccc21 | % | -4.84 |
| Cc1noc(C2CN(Cc3ccc4c(c3)CCO4)C2)n1 | % | -0.478 |

Provide each entry's cytotoxicity at 10 µM from the list below.
1. CC(C)c1nc(CN2CCCCC2)cs1
2. CN(C)C(=O)N1CC2(CCNCC2)c2cc(Cl)ccc21
3. Cc1cnc(CN(C)C2CCN(CCCc3ccccc3)C2)o1 (centres undefined)

Solution:
[20.2, -69.8, -4.02]

----------
- METHOD DESCRIPTION: Toxicity liver stage against HepG2, at 10uM
- Assay type: cell-based
- Design: test concentration 10 uM, cell line HepG2-A16-CD81EGFP
- RECORDED CONDITIONS: human, HepG2-A16-CD81EGFP cells; read-out: INHIBITION
Exercise: for every item that follows, state its recorded cytotoxicity at 10 µM.
Give bare numbers, in %.

| MOLECULE | cytotoxicity at 10 µM [%] |
| --- | --- |
| CCOCCCNc1ncc(-c2cccc(F)c2)c(-c2nccn2C)n1 | 12.5 |
| O=C1N(CC2CCCC2)CCC12CCN(c1ncc(F)cn1)CC2 | 11.2 |
| Clc1cccc(C2CCN(c3ncnc4c3CCNC4)C2)c1 (stereo unspecified) | 50 |
| Cc1ccccc1CSc1nc(N)cc(N2CCOCC(CO)C2)n1 (stereo unspecified) | -9.23 |
| O=C(c1cn(CC(=O)N2CCCCC2)c2ccccc12)C1CC1 | 9.14 |

Problem: What does the data say about its cytotoxicity at 10 µM? Entry: Cc1cc(CNc2ccc3nc(C)sc3c2)no1
Solution: -5.2

----------
- METHOD DESCRIPTION: Toxicity liver stage against HepG2, at 10uM
- Type: cell-based
- Set-up: test concentration 10 uM, cell line HepG2-A16-CD81EGFP
- RECORDED CONDITIONS: human, HepG2-A16-CD81EGFP cells; read-out: INHIBITION
QUANTITY: cytotoxicity at 10 µM (%)
One number for each entry, in %.

Below, each entry is followed by its recorded cytotoxicity at 10 µM result.
| COMPOUND | cytotoxicity at 10 µM, % |
| --- | --- |
| CN(C)c1cc(CNC(=O)c2ccc(F)cc2F)ccn1 | -4.82 |
| O=C(c1nc2c(o1)CN(CC1CCC1)C2)N1CCCC1 | -131 |
| CCCn1cc(C(=O)N2CCCC2(C)c2nc(C)cc(N)n2)cn1 (stereo unspecified) | -1.13 |

Provide each entry's cytotoxicity at 10 µM from the list below.
1. CN(CC(N)=O)CC(=O)N(C1=CCCCC1)C1CC1
2. Cc1nc(CN2CCOCC23CCN(c2ccc(C#N)cc2)CC3)cs1
3. CCc1c(C)sc(NC(=O)CN2CCN(CC)CC2)c1C(=O)OC

Solution:
[-3.85, -13.8, -11.1]
